target: HLA-B*51:01; test: IEDB peptide-MHC binding, purified MHC/competitive/fluorescence; filed as Kd, often an IC50 or EC50 that approximates it; bounds were set here for any values at or beyond the usual limits of such assays; conditions: source organism: New York virus
measured.quantity: Kd

Exercise: Request - read-out Kd | tested on HLA-B*51:01 | sequence FVKDWMDRI
Key: ≥ 20 µM

###

target: HLA-A*26:01; experiment: IEDB peptide-MHC binding, purified MHC/competitive/radioactivity; filed as Kd, often an IC50 or EC50 that approximates it; bounds were set here for any values at or beyond the usual limits of such assays; conditions: source organism: Lymphocytic choriomeningitis virus (strain WE)
measured.quantity: Kd (nM)
State just the number; it will be interpreted in nM.

Exercise: Consider the sequence MTKEASREY and give its measured Kd.
Key: 17.7

Attribution: the Immune Epitope Database (IEDB)
